assay-summary: Solubility in water (shaking 20 minutes, HPLC UV 210 nm)
Assay type: physicochemical
stated-conditions: 37 °C, thermodynamic from solid
Structures can show the parent of a compound that is named as a salt.
assay-endpoint: solubility at 20 min (mg/mL)
Reply with just the number (in mg/mL).

**Query** Requested read-out: solubility at 20 min. Entry: O=C(N[C@H]1CN2CCC1CC2)c1cc2cccc(Cl)c2s1 [Form I, hydrochloride monohydrate]
**Result** 90

---

assay-summary: Solubility measurements of Forms I and II in aqueous acetonitrile (HPLC, equilibrium plateau)
Assay type: physicochemical
stated-conditions: aqueous acetonitrile, 12.5 °C, organic solvent or mixture, thermodynamic from solid, aqueous acetonitrile, water concentration 8.5 v/v %, 12.5 °C; read-out: Solubility
Counter-ions that a name gives are not always drawn.
assay-endpoint: solubility (mg/mL)
Reply with just the number (in mg/mL).

**Query** Requested read-out: solubility. Entry: O=C(N[C@H]1CN2CCC1CC2)c1cc2cccc(Cl)c2s1 [Form I, hydrochloride monohydrate]
**Result** 27.6
